Target of assay: T1, trastuzumab (Herceptin)
T1 construct: also called Tmab; not shown: the constant regions
Measurement protocol: ELISA screen of colony lysate on coated trastuzumab, 40 h with 1 uM 1HE, high-affinity panning
For each of the binders below, state its estimated half-life.
Write down the numeric answer in h and omit the unit.

Query :: Fill blank: measured estimated half-life of the binder 2F9 (VHH, also called 1HE mutant 2F9) VHH: EVQLVESGGGLVQAGDSLTLSCAASGRTFSSVAMGWFRQAPGKERKFVANISWNGDSTYYTDSVKGRFTISRDNAKNTVYLQMSSLKPEDTAVYYCAADVRWTGEGHRADYWGQGTQVTVSS is ____.
Result :: 30.8

Query :: Thanks! And 2D11 (VHH, also called 1HE mutant 2D11) VHH: EVQLVESGGGLVQAGDSLTLSCAASGRTFSSVAMGWFRQAPGKERKFVANISWNGDSTYYTDSVKGRFTISRDNARNTVYLQMSSLKPEDTAVYYCAADVRWTGDGHRADYWGQGTQVTVSS ?
Result :: 29.6

Query :: Thanks! And 2G2 (VHH) VHH: EVQLVESGGGLVQAGDSLTLSCAASGRTFSSVAMGWFRQAPGKERKFVANISWNGDSTYYTDSVKGRFTISRDNAKNTVYLQMSSLKPEDTAVYYCAADVRWTGDGHRADNWGQGTQVTVSS ?
Result :: 15.7

Query :: Thanks! And 2A4 (VHH, also called 1HE mutant 2A4) VHH: EVQLVESGGGLVQAGDSLTLSCAASGRTFSSVAMGWFRQAPGKERKFVANISWNGDSAYYTDSVKGRFTISRDNAKNTVYLQMSSLKPEDTAVYYCAADVRWTGDGHRADYWGQGTQVTVSS ?
Result :: 70.8

Query :: Thanks! And 1HE mutant 2E10 (L18Q, T103A) (VHH) VHH: EVQLVESGGGLVQAGDSQTLSCAASGRTFSSVAMGWFRQAPGKERKFVANISWNGDSTYYTDSVKGRFTISRDNAKNTVYLQMSSLKPEDTAVYYCAADVRWAGDGHRADYWGQGTQVTVSS ?
Result :: 35.7

Query :: Thanks! And 2H2 (VHH, also called 1HE mutant 2H2) VHH: EVQLVESGDGLVQAGDSLTLSCAASGRAFSSVAMGWFRQAPGKERKFVANISWNGDSTYYTDSVKGRFTISRDNAKNTVYLQMSSLKPEDTAVYYCAADVRWTGDGHRADYWGQGTQVTVSS ?
Result :: 26.9

Query :: Thanks! And 2E11 (VHH, also called 1HE mutant 2E11) VHH: EVQLVESGGGLVQAGDSLTLSCAASGRTFSSVAMGWFRQAPGKERKFVANISWNGDSTYYTDSVKGRFTISRDNAKNTVYLQMSSLEPEDTAVYYCAADVRWTGDGHRADYWGQGTQVTVSS ?
Result :: 17.7

Query :: Thanks! And 2D7 (VHH) VHH: EVQLVESGGGLVQAGDSLTLSCAASGRTFSSVAMGWFRQAPGKERKFVANISWNGDSTYYTDSVKGRFTISRDNAKNTVYLQMSSLKPEDTAVYYCAADVRWAGDGHRADYWGQGTQVTVSS ?
Result :: 43.5
